Hey, just so you know, these numbers are from patent US20210395344A1.

Molecular target: T1, SARS-CoV-2 S1 (subunit 1) protein (SARS-CoV-2, UniProt P0DTC2 16-685)
T1 construct: also called biotinylated SARS-CoV-2 S1
Assay: phage ELISA
This listing pairs binders with measured screening ELISA (Avg), fold over background.
Output spec: scalar in fold over background, unitless text.

Below, 8 binders whose answers are already recorded.
binder	unit.string	assay.result
SARS-CoV-2 variant 1-23 (antibody, V domains shown) VH: EVQLLESGGGLVQPGGSLRLSCAASGFTFSSYAISWVRQAPGKGLEWVSIISGSGGSTYYADSVKGRFTISRDNSKNTLYLQMNSLRAEDTAVYYCAREGYRDYLWYFDLWGQGTLVTVSS VL: QSALTQPASVSGSPGQSITISCTGTSNDVGSYNLVSWYQQHPGKAPKLMIYEGNKRPSGVSNRFSGSKSGNTASLTISGLQAEDEADYYCCSYAGSYTVFGGGTKLTVL	fold over background	23.1
SARS-CoV-2 variant 1-17 (antibody, V domains shown) VH: EVQLLESGGGLVQPGGSLRLSCAASGFTFSSYAMYWVRQAPGKGLEWVSAISGSAGSTYYADSVKGRFTISRDNSKNTLYLQMNSLRAEDTAVYYCARDTNDFWSGYSIFDPWGQGTLVTVSS VL: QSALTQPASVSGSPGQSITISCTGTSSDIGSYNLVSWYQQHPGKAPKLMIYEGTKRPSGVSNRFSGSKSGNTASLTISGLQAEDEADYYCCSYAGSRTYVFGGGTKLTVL	fold over background	27.4
SARS-CoV-2 variant 1-47 (antibody, V domains shown) VH: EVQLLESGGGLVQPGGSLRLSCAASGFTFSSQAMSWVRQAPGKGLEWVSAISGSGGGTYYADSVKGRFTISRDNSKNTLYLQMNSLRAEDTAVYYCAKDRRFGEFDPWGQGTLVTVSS VL: QSALTQPASVSGSPGQSITISCTGTSSGVGSYNLVSWYQQHPGKAPKLMIYEGIKRPSGVSNRFSGSKSGNTASLTISGLQAEDEADYYCCSYAGSSSFVVFGGGTKLTVL	fold over background	22.6
SARS-CoV-2 variant 1-8 (antibody, V domains shown) VH: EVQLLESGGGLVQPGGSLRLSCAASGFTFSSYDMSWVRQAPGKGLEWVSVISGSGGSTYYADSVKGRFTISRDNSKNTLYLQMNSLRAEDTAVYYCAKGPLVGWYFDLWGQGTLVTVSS VL: QSALTQPASVSGSPGQSITISCTGTSNDVGSYNLVSWYQQHPGKAPKLMIYEGSKRPSGVSNRFSGSKSGNTASLTISGLQAEDEADYYCCSYAGSRYVVFGGGTKLTVL	fold over background	19.3
SARS-CoV-2 variant 1-42 (antibody, V domains shown) VH: EVQLLESGGGLVQPGGSLRLSCAASGVTFSSYAMSWVRQAPGKGLEWVSAITGSGGSTYYADSVKGRFTISRDNSKNTLYLQMNSLRAEDTAVYYCAKHGSGTIFGVVIAKYYFDYWGQGTLVTVSS VL: QSALTQPASVSGSPGQSITISCTGTSSDVGRYNLVSWYQQHPGKAPKLMIYEGGKRPSGVSNRFSGSKSGNTASLTISGLQAEDEADYYCCSYASSSTLVFGGGTKLTVL	fold over background	34.5
SARS-CoV-2 variant 1-30 (antibody, V domains shown) VH: EVQLLESGGGLVQPGGSLRLSCAASGFTFSSYAMTWVRQAPGKGLEWVSAISGSGGSTFYADSVKGRFTISRDNSKNTLYLQMNSLRAEDTAVYYCTRPPYGDYGDYWGQGTLVTVSS VL: QSALTQPASVSGSPGQSITISCTGTSRDVGSYNLVSWYQQHPGKAPKLMIYEGTKRPSGVSNRFSGSKSGNTASLTISGLQAEDEADYYCCSYAGSRTPVVFGGGTKLTVL	fold over background	29.5
SARS-CoV-2 variant 1-33 (antibody, V domains shown) VH: EVQLLESGGGLVQPGGSLRLSCAASGFTFSSYAMIWVRQAPGKGLEWVSAISGSGGSTFYADSVKGRFTISRDNSKNTLYLQMNSLRAEDTAVYYCTRPPYGDYGDYWGQGTLVTVSS VL: QSALTQPASVSGSPGQSITISCTGTSSDVGSYNLLSWYQQHPGKAPKLMIYEASKRPSGVSNRFSGSKSGNTASLTISGLQAEDEADYYCCSYAGSRTPVVFGGGTKLTVL	fold over background	17.6
SARS-CoV-2 variant 1-3 (antibody, V domains shown) VH: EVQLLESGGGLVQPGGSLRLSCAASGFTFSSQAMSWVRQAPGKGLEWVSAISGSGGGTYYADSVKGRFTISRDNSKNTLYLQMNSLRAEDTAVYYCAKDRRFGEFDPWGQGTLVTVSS VL: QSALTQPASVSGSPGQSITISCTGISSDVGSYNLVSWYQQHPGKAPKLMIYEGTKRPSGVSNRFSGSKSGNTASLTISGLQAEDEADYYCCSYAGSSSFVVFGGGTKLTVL	fold over background	23.9

Form field screening ELISA (Avg), fold over background, entry SARS-CoV-2 variant 1-24 (antibody, V domains shown) VH: EVQLLESGGGLVQPGGSLRLSCAASGFTFSSYAMNWVRQAPGKGLEWVSIISGSGGSTYYADSVKGRFTISRDNSKNTLYLQMNSLRAEDTAVYYCAREGYRDYLWYFDLWGQGTLVTVSS VL: QSALTQPASVSGSPGQSITISCTGTSSDVGYYNLVSWYQQHPGKAPKLMIYEGNKRPSGVSNRFSGSKSGNTASLTISGLQAEDEADYYCCSYAGGSVVFGGGTKLTVL : 32.9

Entry SARS-CoV-2 variant 1-38 (antibody, V domains shown) VH: EVQLLESGGGLVQPGGSLRLSCAASGITFSSYAMSWVRQAPGKGLEWVSGISGSGGSTYYADSVKGRFTISRDNSKNTLYLQMNSLRAEDTAVYYCAKHGSGTIFGVVIAKYYFDYWGQGTLVTVSS VL: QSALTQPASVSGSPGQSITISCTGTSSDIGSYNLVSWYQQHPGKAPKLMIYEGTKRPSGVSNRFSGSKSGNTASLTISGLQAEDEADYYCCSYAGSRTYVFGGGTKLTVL — recorded screening ELISA (Avg), fold over background = 20.2
